assay: Pharmacokinetics of SOMATULINE™ filament vs liquid solution in dogs (FIGS. 4A and 4B); type: in vivo; details: dog, blood, solution formulation, within about 2 hours
value-type: concentration at 2 h

[
  {
    "smiles-structure": "CC(C)[C@@H]1NC(=O)[C@H](CCCCN)NC(=O)[C@@H](Cc2c[nH]c3ccccc23)NC(=O)[C@H](Cc2ccc(O)cc2)NC(=O)[C@@H](NC(=O)[C@H](N)Cc2ccc3ccccc3c2)CSSC[C@@H](C(=O)N[C@H](C(N)=O)[C@@H](C)O)NC1=O",
    "value-type": "concentration at 2 h",
    "result": "< 0.1 ng/mL"
  }
]

---

assay: Pharmacokinetics of SOMATULINE™ filament vs liquid solution in dogs (FIGS. 4A and 4B); type: in vivo; settings: dog, blood, solid drug filament, first 10 hours, read-out: blood concentration of SOMATULINE™ (almost constant level)

[
  {
    "molecule": "CC(C)[C@@H]1NC(=O)[C@H](CCCCN)NC(=O)[C@@H](Cc2c[nH]c3ccccc23)NC(=O)[C@H](Cc2ccc(O)cc2)NC(=O)[C@@H](NC(=O)[C@H](N)Cc2ccc3ccccc3c2)CSSC[C@@H](C(=O)N[C@H](C(N)=O)[C@@H](C)O)NC1=O [SOMATULINE™]",
    "concentration at 10 h": "> 0.1 ng/mL"
  }
]

---

assay: Pharmacokinetics of SOMATULINE™ filament vs liquid solution in dogs (FIGS. 4A and 4B); format: in vivo; conditions: dog, blood, solid drug filament, within 24 hours

[
  {
    "molecule": "CC(C)[C@@H]1NC(=O)[C@H](CCCCN)NC(=O)[C@@H](Cc2c[nH]c3ccccc23)NC(=O)[C@H](Cc2ccc(O)cc2)NC(=O)[C@@H](NC(=O)[C@H](N)Cc2ccc3ccccc3c2)CSSC[C@@H](C(=O)N[C@H](C(N)=O)[C@@H](C)O)NC1=O [SOMATULINE™]",
    "concentration at 24 h": "~2 pg/mL"
  }
]

---

experiment: Pharmacokinetics of SOMATULINE™ filament vs liquid solution in dogs (FIGS. 4A and 4B); format: in vivo; settings: dog, blood, solution formulation, within about 8 hours

[
  {
    "smiles-structure": "CC(C)[C@@H]1NC(=O)[C@H](CCCCN)NC(=O)[C@@H](Cc2c[nH]c3ccccc23)NC(=O)[C@H](Cc2ccc(O)cc2)NC(=O)[C@@H](NC(=O)[C@H](N)Cc2ccc3ccccc3c2)CSSC[C@@H](C(=O)N[C@H](C(N)=O)[C@@H](C)O)NC1=O",
    "concentration at 8 h": "< 1 pg/mL"
  }
]
